All values here come from ChEMBL document CHEMBL1124133.

test system: Rattus norvegicus; test: Hypolipidemic effects of compound on rat plasma Triglyceride (TG) level after peroral administration at 100 mg/kg dose; type: functional; conditions: route oral
Exercise: for every item that follows, state its recorded TG.
Enter your answer as a number in mg/dL; do not include the unit.

What does the data say about its TG? Entry: CC(C)(CCCOc1ccc(-c2ccccc2)cc1)C(=O)O 54.3

Follow-up item: CC(C)(CCCOc1ccc(CCNC(=O)c2ccccc2)cc1)C(=O)O 49.4

Follow-up item: Cc1ccc(C)c(OCCCC(C)(C)C(=O)O)c1 [GEMFIBROZIL] 53.1

Follow-up item: CC(C)(CCCCCCOc1ccc(CCCCc2ccccc2)cc1)C(=O)O 48.9

Follow-up item: CC(C)(CCCOc1ccc(CCc2ccccc2)cc1)C(=O)O 92.7

Follow-up item: CC(C)(CCCOc1ccc(C(=O)c2ccccc2)cc1)C(=O)O 53.6

Follow-up item: Cc1ccc(CCCCc2ccc(OCCCCC(C)(C)C(=O)O)cc2)c(C)c1 37

Follow-up item: CC(C)(CCCCCOc1ccc(CCCCc2ccccc2)cc1)C(=O)O 60.4

Follow-up item: Cc1cnc(C(=O)OCC(C)(C)CCCCOc2ccc(CCCCc3ccccc3)cc2)cn1 41

Follow-up item: CC(C)(CCCCOc1ccc(CCCCc2ccccc2)cc1)C(=O)OCc1cccnc1 43.9

Follow-up item: CC(C)(CCCOc1ccc(Cc2ccccc2)cc1)C(=O)O 84.7
